- Tested on: U251 CNS
- procedure-details: NCI tumour cell line growth inhibition, 48 h
Where a SMILES comes first, the peptide text is derived from it. [ ]: non-standard residue; d: D form. The star is where a group is joined. ξ: configuration not given here. dThr(3ξ) = CC(O)[C@@H](N)C(=O)O; dNMeL = CN[C@H](CC(C)C)C(=O)O; OBn = c1ccc(CO*)cc1; ξLac = CC(O)C(=O)O
readout-type: TGI

{"molecule": "CC(=O)OC(C)[C@@H](NC(=O)[C@@H](CC(C)C)N(C)C(=O)[C@@H]1CCCN1C(=O)C(C)O)C(=O)OCc1ccccc1 (stereo not given in full) (H-[ξLac]P[dNMeL][dThr(3ξ)](Ac)-OBn)", "TGI": "> 100 µM"}
{"molecule": "COC1O[C@@H]2CCN3C(=O)[C@@H](OC(=O)c4ccc([N+](=O)[O-])cc4)[C@H]1C23 (stereo not given in full)", "TGI": "> 100 µM"}
{"molecule": "Nc1nc(N)c2c(n1)NC(c1ccccc1)CC(/C=C/c1ccc(Cl)cc1)=N2 (stereo not given)", "TGI": "> 100 µM"}
{"molecule": "O=C(Nc1n[nH]c2nc(-c3ccco3)ccc12)C1CC1", "TGI": "> 25 µM"}

For the next question, use this molecule.
The molecule listed as CS(=O)(=O)c1nc(-c2cc3c(c(S(C)(=O)=O)n2)CCCC3)cc2c1CCCC2 has a reported TGI of > 100 µM

----------
- Tested on: NCI-H226 lung
- procedure-details: NCI tumour cell line growth inhibition, 48 h
Label scheme for TGI: lower than 30 µM is rule not met, 30 µM and above is rule met.

Here are 3 molecules together with their reported answers.
{"molecule": "COc1c2c(cc3c1C(O)N1CC[C@]34[C@H]3O[C@H]3[C@H](OC)C[C@@H]14)OCO2 (stereo partly drawn)", "measured-on": "NCI-H226 lung", "assigned-label": "rule met"}
{"molecule": "COc1cc(-c2cc(=O)c3ccccc3o2)ccc1N", "measured-on": "NCI-H226 lung", "assigned-label": "rule met"}
{"molecule": "NCC#CCNCCCN1CC1", "measured-on": "NCI-H226 lung", "assigned-label": "rule met"}

Note: attention shifts to another entry.
Exam item: decide whether the reported TGI for COc1cc(/C=C2\[C@H]3c4c(c(OC)c(C)c(OC)c4OC)C[C@@H](C(=O)N2Cc2ccccc2)N3C(=O)OC(C)C)c(OC)c(C)c1OC is at least 30 µM.
rule met

----------
- Tested on: 786-0 renal
- procedure-details: NCI tumour cell line growth inhibition, 48 h
Field: TGI. Provide a value for each of the compounds that follow.

{"compound": "CC(=O)CCNc1ccc(-c2cc(-c3ccc(N(C)C)cc3)nc3ccc4ccccc4c23)cc1", "TGI": "> 100 µM"}
{"compound": "C=CC1ON(C)CCc2cc(OC)c(OC)cc21 (configuration not stated)", "TGI": "> 100 µM"}
{"compound": "O=c1c2ccccc2nc(-c2ccc(Br)cc2)n1NC1OC(CO)C(O)C(O)C1O (configuration not stated)", "TGI": "> 100 µM"}
{"compound": "COc1ccc(N(CC(=O)NCCC[Te]c2ccccc2)C(=O)CCSC2=C(C)C(=O)c3ccccc3C2=O)cc1", "TGI": "4.91 µM"}
{"compound": "Cc1ccc(S(=O)(=O)/N=c2\\ssc(Nc3ccccc3)c2Cl)cc1", "TGI": "> 50 µM"}

Would you be so kind as to report TGI for each listed record?
1. CNNCc1ccc(C(=O)NC(C)C)cc1
2. Cc1c(C(=O)CC(=O)C(=O)Nc2ccc(Cl)c(Cl)c2)[n+](=O)c2ccccc2n1[O-]
3. COC(=O)N/N=C(/CCN1CCCC1)CC(c1ccccc1)c1c(O)c2ccccc2oc1=O (configuration not stated)
4. CN1C2CCC1C(C(O)c1ccccc1[N+](=O)[O-])C(=O)C2 (configuration not stated)
5. Cc1ccccc1NC(=O)C(=O)C(c1cnc2ccc([N+](=O)[O-])cc2n1)[N+](=O)[O-] (configuration not stated)
6. CCCCCC(O)[C@H]1C(=O)C[C@@H](O[Si](C)(C)C(C)(C)C)[C@@H]1/C=C/CCOCc1ccccc1 (some centres not stated)

["> 500 µM", "69 µM", "> 100 µM", "> 100 µM", "> 100 µM", "26.1 µM"]

For this compound ( O=C1c2ccccc2-c2nc3ccc(O)cc3n21 ), measured TGI is > 100 µM
